Field: self-cleavage. Provide a value for each of the variants that follow.
B1: CPEB3 Ribozyme (parent)
chain: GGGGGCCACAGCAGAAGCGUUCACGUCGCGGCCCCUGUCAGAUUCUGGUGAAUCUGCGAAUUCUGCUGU

# Variants of: B1
# Assay summary: self-cleavage, relative activity (ratio to wild type); higher = more cleavage; co-transcriptional

1) G30U U53A ... 0.297
2) U21C C63G ... 0.635

Could you report self-cleavage for every entry in the following list?
1. C22A G65A
2. A59C U64A

[A]
0.152
0.471
